molecular target: Cholinesterase (Equus caballus, UniProt P81908); experiment: Inhibition of recombinant equine BChE by Ellman's method
Sequence (P81908 whole entry): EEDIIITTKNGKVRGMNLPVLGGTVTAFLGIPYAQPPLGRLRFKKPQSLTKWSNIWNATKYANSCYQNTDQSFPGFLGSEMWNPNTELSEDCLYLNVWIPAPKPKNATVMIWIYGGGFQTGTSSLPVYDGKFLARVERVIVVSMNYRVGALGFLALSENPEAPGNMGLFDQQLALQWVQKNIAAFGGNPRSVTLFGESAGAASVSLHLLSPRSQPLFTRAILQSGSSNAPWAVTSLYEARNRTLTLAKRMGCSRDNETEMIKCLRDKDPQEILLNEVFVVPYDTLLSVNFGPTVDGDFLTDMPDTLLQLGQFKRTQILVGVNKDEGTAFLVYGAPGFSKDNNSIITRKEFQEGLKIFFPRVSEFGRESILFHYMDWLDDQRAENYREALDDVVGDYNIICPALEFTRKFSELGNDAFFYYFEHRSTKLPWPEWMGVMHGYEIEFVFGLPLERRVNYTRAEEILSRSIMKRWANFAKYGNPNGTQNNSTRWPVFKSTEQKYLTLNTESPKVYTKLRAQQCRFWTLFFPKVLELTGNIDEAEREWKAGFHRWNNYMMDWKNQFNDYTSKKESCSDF
result_type: log10 IC50 (log10 of the value in nM)
Form field - Quantity: IC50; Unit: nM; Scale: log10

Give reported log10 IC50 value for Cc1ccc2[nH]c3ccncc3c2c1
3.15

Give reported log10 IC50 value for C[n+]1ccc2[nH]c3ccc(F)cc3c2c1.[I-]
3.43

Give reported log10 IC50 value for CN1CCc2[nH]c3ccccc3c2C1
3.81

Give reported log10 IC50 value for C[n+]1ccc2c(c1)c1cc(F)ccc1n2CCC(=O)N1c2ccccc2Sc2ccccc21
1.51

Give reported log10 IC50 value for COc1ccc2[nH]c3ccncc3c2c1
4.10

Give reported log10 IC50 value for Cc1ccc2c(c1)c1c[n+](C)ccc1n2CCC(=O)N1c2ccccc2Sc2ccccc21
1.51

Give reported log10 IC50 value for Fc1ccc2[nH]c3c(c2c1)CN(Cc1ccccc1)CC3
3.32

Give reported log10 IC50 value for O=C(CCn1c2ccccc2c2c[n+](Cc3ccccc3)ccc21)N1c2ccccc2Sc2ccccc21
1.04

Give reported log10 IC50 value for Cc1ccc2c(c1)c1cnccc1n2CCC(=O)N1c2ccccc2Sc2ccccc21
1.20

Give reported log10 IC50 value for COc1ccc2[nH]c3c(c2c1)CN(Cc1ccccc1)CC3
3.80

Give reported log10 IC50 value for Cc1ccc2[nH]c3cc[n+](C)cc3c2c1.[I-]
3.74
